The measured values listed here are drawn from ChEMBL document CHEMBL3259598.

test: Inhibition of melanogenesis in mouse B16-4A5 cells at 30 uM after 72 hrs by spectrophotometry relative to control; assay type: functional; details: B16-4A5, 72 h
Classification field: Criterion met = inhibition at 30 µM at or over 30%; Criterion not met = inhibition at 30 µM under 30%.

Reference set, count: 4
CC(C)[C@H]1CC[C@]2(C)[C@@H](O)CCC(C=O)=C[C@@H]12	Criterion met
O=C[C@]1(/C=C\O[C@@H]2O[C@H](CO)[C@@H](O)[C@H](O)[C@H]2O)CC[C@H](COC(=O)C2=Cc3ccc(O)c(O)c3[C@@H](c3ccc(O)cc3)[C@@H]2C(=O)OC[C@H]2CC[C@](C=O)(/C=C\O[C@@H]3O[C@H](CO)[C@@H](O)[C@H](O)[C@H]3O)[C@@H](O)C2)C[C@@H]1O	Criterion not met
O=C[C@]1(/C=C\O[C@@H]2O[C@H](CO)[C@@H](O)[C@H](O)[C@H]2O)CC[C@H](COC(=O)C2=Cc3cc(O)c(O)cc3[C@@H](c3ccc(O)cc3)[C@@H]2C(=O)OC[C@H]2CC[C@](C=O)(/C=C\O[C@@H]3O[C@H](CO)[C@@H](O)[C@H](O)[C@H]3O)[C@@H](O)C2)C[C@@H]1O	Criterion not met
CC(C)[C@@H]1CC[C@@]2(C)[C@H](O)CCC(C=O)=C[C@@H]12 [APHANAMOL II]	Criterion not met

Then this molecule:
inhibition at 30 µM >= 30% for CC(C)[C@@H]1CC[C@@](C)(O)[C@H]2CCC(C=O)=C[C@@H]12 ?
Criterion met
